Each recorded value in this set is attributed to paper PMC9482650.

System Tested: LNX1_1, Q8TBB1
Sequence (Q8TBB1 261-371): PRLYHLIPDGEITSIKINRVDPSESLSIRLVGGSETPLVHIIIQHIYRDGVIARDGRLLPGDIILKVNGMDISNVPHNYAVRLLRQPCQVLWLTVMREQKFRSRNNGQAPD
Assay Details: holdup assay
Parameters: key: below the threshold = too weak to quantify, mostly under pKd 3.1 to 4
Condition: plain residues with an end cap or a label only (N-terminal biotin on a linker: ado-ado)
Endpoint Label: pKd

Guide cases for pKd, answers given:
FHSIKQSTAV [CRHR1, P34998] :: below the threshold
TFSRRPKTRV [CD226, Q15762] :: 3.9
IQISELETNV [SLC1A7, O00341] :: 3.91
AKADAQESRL [PLCB2, Q00722] :: 3.58
PDSYHRRDFW [U2AF2, P26368] :: below the threshold
MQILSKPEFI [NPSR1, Q6W5P4] :: below the threshold
THREVKFTSL [CD46, P15529] :: 3.5

Suppose we examine the binder WAKEKQHTRL [SLC17A1, Q14916] ; what pKd value has been reported?
3.47
